Values were extracted from PubChem BioAssay (Tox21).

Assay: qHTS assay to identify small molecule antagonists of the androgen receptor (AR) signaling pathway using the MDA cell line - cell viability counter screen (AID 743041; also: nearly all actives have a fitted effect of over 45% in size)
Conditions: MDA-kb2 viability, CellTiter-Fluor, 16 h, cells co-treated with R1881 androgen agonist; series mostly up to 70.3 µM
Inconclusive results are not listed. The source made the active and inactive calls. Calls follow the shape of the dose curve; as a rule, active = well fitted cell-killing curve with a large enough effect in the repeat runs; inconclusive = weak or mixed curves, or effect the other way; inactive = flat fitted curve, though single readings scatter.
parameter: outcome

Nc1cc(Cl)ccc1Cl = inactive
O=C(N[C@@H]1N=C(c2ccccc2F)c2cccc3c2N(CC3)C1=O)c1cc2ccccc2[nH]1 = inactive
CC(=O)O.CC(=O)O.CC(=O)O.CC(=O)O.CC(=O)O.CC(=O)O.CC(=O)O.O.O.[Cr].[Cr].[Cr] = inactive
S=C=NCCc1ccccc1 = inactive
O=C(O)[C@H](O)[C@@H](O)C(=O)O = inactive

###

Experiment: qHTS assay to identify small molecule antagonists of the thyroid receptor (TR) signaling pathway (AID 743065); also: nearly all actives have a fitted effect of over 55% in size
Settings: GH3.TRE-Luc, T3-stimulated luciferase inhibition, 23.5 h; series mostly up to 70.3 µM
Records with an inconclusive call do not appear. Calls of active or inactive are those of the source. The call rests on the fitted dose curve; in most records, active means well fitted inhibition curve with a large enough effect in the repeat runs; inconclusive means weak or mixed curves; inactive means no such curve, though single readings can be large or run the other way.
Labels: active, inactive

CC(C)C(Br)C(=O)NC(N)=O (centres undefined) = inactive
COC(=O)N(OC)c1ccccc1COc1ccn(-c2ccc(Cl)cc2)n1 = active
Nc1ccc(N=Nc2ccccc2)cc1 = inactive
[Cl-].[Cl-].[Sn+2] = inactive
CCOP(=S)(NC(C)C)Oc1ccccc1C(=O)OC(C)C (centres undefined) = active
Nc1nc(N)nc(Cl)n1 = inactive
ClSC(Cl)(Cl)Cl = inactive
Oc1ccc(Cl)c(Cl)c1 = active
O=S(=O)(O)F = inactive
C#CC1(O)CCCCC1 = inactive
N#Cc1sc2c(=O)c3ccccc3c(=O)c=2sc1C#N = active
COc1cnc(OC)n2nc(NS(=O)(=O)c3c(OCC(F)F)cccc3C(F)(F)F)nc12 = inactive
Cc1cc2c3c(c1)C(c1ccccc1)=N[C@@H](NC(=O)c1ccncc1)C(=O)N3CC2 = active
ClC1=C(Cl)[C@]2(Cl)[C@H]3[C@H]([C@@H]4C=C[C@H]3C4)[C@@]1(Cl)C2(Cl)Cl = active
Cc1ccccc1OP(=O)(Oc1ccccc1C)Oc1ccccc1C = active
CC(C)[C@@H](Nc1ccc(C(F)(F)F)cc1Cl)C(=O)OC(C#N)c1cccc(Oc2ccccc2)c1 (some centres undefined) = inactive
CSC1=N[C@@](C)(c2ccccc2)C(=O)N1Nc1ccccc1 = active
CCCCN(CCCC)C(=S)S = inactive
CNC(=O)/C=C(\C)OP(=O)(OC)OC = inactive
CN1CCc2cc3c(cc2C1O)OCO3 (centres undefined) = inactive
c1ccc(Nc2ccc(Nc3ccccc3)cc2)cc1 = active
O=NN(CCO)CCO = inactive
C=Cc1cccc(CCl)c1 = inactive
CCC1COC(Cn2cncn2)(c2ccc(Cl)cc2Cl)O1 (centres undefined) = inactive
COC(=O)c1ccccc1S(=O)(=O)NC(=O)Nc1nc(C)nc(OC)n1 = inactive
COc1ccc2c(c1OC)C(=O)O[C@@H]2[C@H]1c2cc3c(cc2CCN1C)OCO3 = inactive
CC[C@]1(O)CC[C@H]2[C@@H]3CCC4=CCCC[C@@H]4[C@H]3CC[C@@]21C = active
CN1C(=O)[C@@H](NC(=O)c2cc3ccccc3[nH]2)N=C(c2ccccc2)c2ccccc21 = active
COP(=O)(OC)O/C(=C\Cl)c1cc(Cl)c(Cl)cc1Cl = active
S=C=Nc1ccccc1 = inactive
COP(=O)(OC)Oc1ccc([N+](=O)[O-])cc1 = inactive
COCCC#N = inactive
CC(Cc1ccc(O)cc1)NCC(O)c1cc(O)cc(O)c1 (centres undefined) = inactive
COP(=S)(OC)Oc1ccc([N+](=O)[O-])c(C)c1 = inactive

###

Molecular target: Thyrotropin-releasing hormone receptor (Homo sapiens) (UniProt P34981)
Sequence (P34981 whole entry, looked up): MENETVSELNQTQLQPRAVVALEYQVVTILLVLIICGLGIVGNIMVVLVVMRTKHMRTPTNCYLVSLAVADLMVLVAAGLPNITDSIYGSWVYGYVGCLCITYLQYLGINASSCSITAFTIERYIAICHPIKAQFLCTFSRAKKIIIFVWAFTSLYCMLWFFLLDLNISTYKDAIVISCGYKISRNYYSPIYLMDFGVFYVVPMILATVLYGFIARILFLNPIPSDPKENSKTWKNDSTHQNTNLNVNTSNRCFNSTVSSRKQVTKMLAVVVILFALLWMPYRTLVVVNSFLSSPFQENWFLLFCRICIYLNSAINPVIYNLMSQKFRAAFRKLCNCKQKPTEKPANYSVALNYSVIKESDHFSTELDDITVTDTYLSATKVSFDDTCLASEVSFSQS
Assay: qHTS assay to identify small molecule antagonists of the thyrotropin-releasing hormone receptor (TRHR) signaling pathway (AID 1346877)
Settings: TRHR-HEK293, TRH-induced calcium fluorescence, antagonist mode; series mostly up to 51.3 µM
Active and inactive are the calls of the source. Calls follow the shape of the dose curve; as a rule, active = well fitted inhibition curve with a large enough effect in the repeat runs (not every such curve was filed as active); inconclusive = weak or mixed curves; inactive = flat fitted curve, though single readings scatter.
Labels: y (active), n (inactive)

O=[N+]([O-])C(Br)Br = n
C#CCO = n
CCN1CCC2(CC1)COc1cc3c(cc12)N(C(=O)c1ccc(-c2ccc(-c4nnc(C)o4)cc2C)cc1)CC3 = n
O=C(O)[C@H](O)[C@@H](O)C(=O)O = n
Nc1nc(N)c(N)c(N)n1 = n
CC(C)=CC1C(C(=O)OC(C#N)c2cccc(Oc3ccccc3)c2)C1(C)C (stereo not drawn) = n
Nc1ccc(Cl)cc1C(=O)c1ccccc1F = n
CCC[CH2][Sn]([CH2]CCC)([CH2]CCC)[CH2]CCC = n
O=P(Cl)(Cl)Cl = n
N#CC(C#N)=NNc1cccc(Cl)c1 = n
CC(C)C(Br)C(=O)NC(N)=O (stereo not drawn) = n
CCC[CH2][Sn]([CH2]CCC)([CH2]CCC)[O][Sn]([CH2]CCC)([CH2]CCC)[CH2]CCC = y
O=S1(=O)OCC2C(CO1)C1(Cl)C(Cl)=C(Cl)C2(Cl)C1(Cl)Cl (stereo not drawn) = n

###

Test: qHTS assay to identify small molecule HDAC inhibitors (AID 1259364);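 also: wild-type HCT-116 cells with endogenous class I/II HDAC activity; nearly all actives have a fitted effect of over 45% in size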
Conditions: HCT-116 HDAC-Glo I/II luminescence, 2 h; series mostly up to 92.4 µM
Inconclusive results are not listed. Activity calls are given as the source filed them. Calls come from the whole dose curve; as a rule, active = well fitted inhibition curve with a large enough effect in the repeat runs; inconclusive = weak or mixed curves; inactive = flat fitted curve, though single readings scatter.
Labels: t (active), f (inactive)

CN = f
OCC(Br)CBr (stereo not given) = f
Cc1ccc2cc3c(ccc4ccccc43)c3c2c1CC3 = f
O=c1[nH]c2cc(Cl)ccc2n1C1CCNCC1 = f
N#Cc1sc2c(=O)c3ccccc3c(=O)c=2sc1C#N = t
[O]=[Cr](=[O])([OH])[O][Cr](=[O])(=[O])[OH] = f
COP(=O)(OC)O/C(=C\Cl)c1cc(Cl)c(Cl)cc1Cl = f
N#CC(C#N)=NNc1cccc(Cl)c1 = t
CCCCCON=O = f
COC(=O)/C=C(\C)OP(=O)(OC)OC = f
COc1ccc2[nH]cc(CCN(C(C)C)C(C)C)c2c1 = f
CC(=O)C(Cl)C(=O)N(C)C (stereo not given) = f
CCOP(=S)(NC(C)C)Oc1ccccc1C(=O)OC(C)C (stereo not given) = f
COc1nc(C)nc(NC(=O)NS(=O)(=O)c2ccccc2Cl)n1 = f
[O]=[Cr][O][Cr]=[O] = f
CNC(C)(C)Cc1ccccc1 = f
CC(C)N(C(=O)SC/C(Cl)=C/Cl)C(C)C = f
O=C1C(Cl)=C(Cl)C(=O)C(Cl)=C1Cl = f
O.O.O.O.O.O.O=S(=O)([O-])[O-].[Ni+2] = f
[C-]1=CC=CC1.[Cl][Zr+2][Cl].c1cc[cH-]c1 = f
CC(C)(C)c1ccc(OP(=O)(Oc2ccccc2)Oc2ccccc2)cc1 = f
CC1(C)[C@H](/C=C2\CCSC2=O)[C@@H]1C(=O)OCc1coc(Cc2ccccc2)c1 = f
CC#C[C@]1(O)CC[C@H]2[C@@H]3C[C@H](C)C4=CC(=O)CC[C@]4(C)[C@H]3CC[C@@]21C = f
O=[N+]([O-])c1cc(C(F)(F)F)c(Cl)c([N+](=O)[O-])c1Nc1ncc(C(F)(F)F)cc1Cl = f
COc1cnc(OC)n2nc(NS(=O)(=O)c3c(OCC(F)F)cccc3C(F)(F)F)nc12 = f
CCCCCCC[CH2][Sn]([Cl])([Cl])[CH2]CCCCCCC = f
CNC(=O)CSP(=O)(OC)OC = f
O=c1c2ccccc2c(=O)c2c1cc(Cl)c1[nH]c3c([nH]c12)c(Cl)cc1c(=O)c2ccccc2c(=O)c13 = f
C=CC(=C)C = f
c1csc(-c2ccc(-c3cccs3)s2)c1 = t
Nc1c(Cl)c(Cl)c(Cl)c(Cl)c1Cl = f
O=C(CCCCl)c1ccc(F)cc1 = f
c1ccc2c(c1)cc1ccc3cccc4ccc2c1c34 = f
CCC1COC(Cn2cncn2)(c2ccc(Cl)cc2Cl)O1 (stereo not given) = f
CC(C)=CC1C(C(=O)OC(C#N)c2cccc(Oc3ccccc3)c2)C1(C)C (stereo not given) = f
C[C@]12CC[C@H]3[C@@H](CCC4=CC(=O)CC[C@@H]43)[C@@H]1CC[C@@H]2OC(=O)CCc1ccco1 = f
c1ccc(Nc2ccc(Nc3ccccc3)cc2)cc1 = f
CCn1cc[n+](C)c1 (tested in a mixture with another compound) = f
CN(C)CCc1c[nH]c2ccccc12 = f
CN1CCc2cc3c(cc2C1O)OCO3 (stereo not given) = f
CCOC(=O)Cc1ccccc1 = f
CCCCN(CCCC)C(=S)S = f
CCN(CC)C(=S)S = f
CCNc1nc(NC(C)C(C)C)nc(SC)n1 (stereo not given) = f
CCc1cccc(C)c1N(C(=O)CCl)[C@@H](C)COC = f
